- protocol_text: A673 Ewing sarcoma viability loss – cell-based, CellTiter-Glo luminescence, cherry-pick retest, confirmation (AID 720587)
- measurement_context: A673 Ewing sarcoma viability, CellTiter-Glo ATP luminescence, 72 h; at 26 µM (top of the series)
For each entry below, report its activity change, negative = cytotoxicity value.
Express the result in % but write the number alone.

Per the record, Cc1cc2sc3ccc(C#CC4(O)CCCCC4)cc3c(=O)c2cc1C has activity change, negative = cytotoxicity of -2.73

Kindly note the recorded activity change, negative = cytotoxicity for CN(C)c1ccc(N=Nc2ccccc2Br)cc1 , which is -10.3

O=C1CCC2S/C(=C/Nc3ccc(C(F)(F)F)cc3)C(=O)N12 (stereo not given) yielded activity change, negative = cytotoxicity of -2.74

The compound identified as C(=C\c1ccc(C2[C@H]3CNC[C@@H]2N3Cc2ccccn2)cc1)/c1ccccc1 (stereo not given in full) registered its activity change, negative = cytotoxicity at -3.03

Sample COc1ccccc1CNC(=O)C[C@@H]1CC[C@H]2[C@@H](COC[C@H](O)CN2C(=O)Nc2ccc(C(F)(F)F)cc2)O1 ; activity change, negative = cytotoxicity observed: -9.47

The recorded activity change, negative = cytotoxicity for entry Cc1ccccc1N=Nc1c(O)n(C)c2ccccc12 equals -1.37

CC1=NC(=O)C(N=Nc2cccc(C(=O)O)c2)N1c1ccccc1 (stereo not given) has a reported activity change, negative = cytotoxicity of -2.93

Documented activity change, negative = cytotoxicity of Cc1cc(C(=O)NNC(=O)c2ccc(S(=O)(=O)N(C)C)cc2)c(C)o1 : 1

Consider Cc1ccsc1/C=N/Nc1cccc(C(=O)O)c1 . Its measured activity change, negative = cytotoxicity is -8.75

Per the records, this compound ( C[C@@H]1CN([C@H](C)CO)C(=O)c2cc(NC(=O)CCCCCC(=O)Nc3ccccc3N)ccc2O[C@H]1CN(C)S(=O)(=O)c1ccc(Cl)cc1 ) has activity change, negative = cytotoxicity equal to -2.24

###

- protocol_text: A673 Ewing sarcoma viability loss – cell-based, CellTiter-Glo luminescence, cherry-pick retest, confirmation (AID 720587)
- measurement_context: A673 Ewing sarcoma viability, CellTiter-Glo ATP luminescence, 72 h; at 26 µM (top of the series)
Could you please report measured activity change, negative = cytotoxicity for the items listed next?
Hi! Could you send only the number? It should be in %, unit omitted.

Lookup result for COC(=O)Cc1[nH]n(-c2nc3ccccc3s2)c(=O)c1C(C)=Nc1ccc(C)cc1 ; measured activity change, negative = cytotoxicity: -10.7

The recorded activity change, negative = cytotoxicity for CCOc1ccc(-c2cc(CCCC(=O)N3CCN(c4ccc(OC)cc4)CC3)no2)cc1 is 9.05

Input COc1ccc(C(=O)NCCNc2nc3cc(C)cc(C)c3cc2C#N)c(OC)c1 . Output activity change, negative = cytotoxicity: 0.961

Entry COc1ccc2cc(C(N)=O)/c(=N\NC(=O)c3ccccc3)oc2c1 , activity change, negative = cytotoxicity reported as -2

Recorded activity change, negative = cytotoxicity (molecule O=c1c2ccccc2oc2cc(C#CC3(O)CCCCC3)ccc12 ): 6.95

activity change, negative = cytotoxicity reading for COc1ccc2oc(C(=O)NCCc3ccccc3)c(C)c2c1 : -2.64

GET /value?item= CCCNC(=O)[C@@H]1[C@@H](CO)[C@@H]2Cn3c(ccc(-c4ccccc4)c3=O)[C@H]1N2C(=O)CC &field=activity change, negative = cytotoxicity returns 14.5

Input O=C(CCCCl)Nc1nc(-c2ccc3c(c2)OCCO3)cs1 . Output activity change, negative = cytotoxicity: 10.2

Lab note: measured activity change, negative = cytotoxicity of C(=N\Nc1ccc2ccccc2n1)/c1ccc2c(c1)OCO2 was -5.01

// activity change, negative = cytotoxicity value for COc1ccccc1/C=C1\SC(=S)N(CCC(=O)Nc2cc(C)on2)C1=O : 6.59

###

For each of the compounds below, state its activity change, negative = cytotoxicity.
- protocol_text: A673 Ewing sarcoma viability loss – cell-based, CellTiter-Glo luminescence, cherry-pick retest, confirmation (AID 720587)
- measurement_context: A673 Ewing sarcoma viability, CellTiter-Glo ATP luminescence, 72 h; at 26 µM (top of the series)
All answers are understood in %, so give the number only.

Lab book: activity change, negative = cytotoxicity of Cc1c(CC(=O)NCCCC(=O)O)c(=O)oc2cc3c(cc12)CCC(C)(C)O3 noted as -4.88

Measured activity change, negative = cytotoxicity of c1ccc(-c2ccc([C@H]3[C@H]4CNC[C@@H]3N4Cc3cc(-c4ccccc4)on3)cc2)cc1 : -11.9

Reported activity change, negative = cytotoxicity for N#Cc1cccc(-c2ccc(C3[C@@H]4CN(C(=O)Cc5ccncc5)C[C@H]3N4)cc2)c1 (stereo partly specified) was -0.912

# compound COc1cc(OC)cc(-c2cc3nc(C)c(CCC(=O)O)c(C)n3n2)c1 ; its activity change, negative = cytotoxicity = 0.866

Documented activity change, negative = cytotoxicity of COc1ccc(/C=C2/SC(=S)N(CCCC(=O)Nc3ccccc3C(=O)O)C2=O)cc1 : 5.45

// COc1ccc(OC)c(-c2cc(C(F)(F)F)c3c(n2)sc2c(O)cc(=O)[nH]c23)c1 : activity change, negative = cytotoxicity value = -2.54

Measured values drawn from PubChem BioAssay AID720587 for this set.
